Peptide text beside a SMILES is read from it.
OBSERVABLE: secondary conformation random coil

Would you mind telling me what secondary conformation random coil value was observed for CC[C@H](C)[C@H](NC(=O)[C@@H](N)C(C)C)C(=O)N1CCC[C@H]1C(=O)N[C@@H](Cc1ccccc1)C(=O)O [Peptide 6, des-Asp^1,Arg^2,Tyr^4,His^6-AII] (H-VIPF-OH) ?
40.4%

----------
Peptide text beside a SMILES is read from it.
OBSERVABLE: secondary conformation parallel (%)
The figure you give is taken to be in %; do not add the unit.

Data request, read-out secondary conformation parallel, for CC[C@H](C)[C@H](NC(=O)[C@@H](N)C(C)C)C(=O)N1CCC[C@H]1C(=O)N[C@@H](Cc1ccccc1)C(=O)O [Peptide 6, des-Asp^1,Arg^2,Tyr^4,His^6-AII] (H-VIPF-OH)
13

----------
Peptide text beside a SMILES is read from it.
OBSERVABLE: secondary conformation β-turn (%)
Give just the number in %; leave the unit off.

INSERT INTO measurements (compound, observed_value) VALUES
  ('N[C@@H](Cc1ccc(O)cc1)C(=O)N[C@@H](Cc1c[nH]cn1)C(=O)N1CCC[C@H]1C(=O)N[C@@H](Cc1ccccc1)C(=O)O [Peptide 5, des-Asp^1,Arg^2,Val^3,Ile^5-AII] (H-YHPF-OH)', 25.7);

Please find the next compound below.
# lookup: secondary conformation β-turn of CC[C@H](C)[C@H](NC(=O)[C@@H](N)C(C)C)C(=O)N1CCC[C@H]1C(=O)N[C@@H](Cc1ccccc1)C(=O)O [Peptide 6, des-Asp^1,Arg^2,Tyr^4,His^6-AII] (H-VIPF-OH)
21.7
